- Tested on: human ovarian A2780 cancer cells
- EXPERIMENTAL_PROTOCOL: SRB growth inhibition assay, A2780
- Format: cell-based
- CONDITION_SUMMARY: SRB; 24 h exposure, 72 h recovery; read-out: IC50 values for azopyridine complexes against A2780 ovarian cancer cells
compounds and their reported IC50
Numeric only. Scale: µM

Study these solved cases before continuing.
CN(C)c1ccc(N=Nc2ccccn2)cc1.F[P-](F)(F)(F)(F)F.[Cl-].[Os+2].c1ccc(-c2ccccc2)cc1 [Complex 11, [(η^6-bip)Os(azpy-NMe2)Cl]PF6] ... 3.9
N.N.[Cl][Pt][Cl] [Cisplatin, reference compound] ... 2
F[P-](F)(F)(F)(F)F.[I-].[Os+2].c1ccc(-c2ccccc2)cc1.c1ccc(N=Nc2ccccn2)cc1 [Complex 1, [(η^6-bip)Os(Azpy)I]PF6] ... 5.4
Cc1ccc(C(C)C)cc1.F[P-](F)(F)(F)(F)F.[I-].[Os+2].c1ccc(N=Nc2ccccn2)cc1 [Complex 2, [(η^6-p-cym)Os(Azpy)I]PF6] ... 10.2

Proceeding to the next compound to report its IC50.
Field IC50 (entry Cc1ccc(C(C)C)cc1.F[P-](F)(F)(F)(F)F.Oc1ccc(N=Nc2ccccn2)cc1.[I-].[Os+2] [Complex 4, [(η^6-p-cym)Os(Azpy-OH)I]PF6] ) reads 0.3

* * *

- Tested on: A2780/cis ovarian (cisplatin-resistant)
- EXPERIMENTAL_PROTOCOL: MTT growth inhibition assay, A2780/cis
- Type: cell-based, human
- CONDITION_SUMMARY: 96 h
- Method: Tumor cell growth inhibition was assessed using the MTT assay.^13 2×10^3 cells were inoculated into a 96-well plate and incubated overnight at 37° C. in a humidified atmosphere containing 5% CO2. […] Absorbance values for the resulting solutions were read at 550 nm on a microplate reader and cell survival calculated as the absorbance of treated cells divided by the control. […]
REPORTED_METRIC: IC50 (µM)
The reply should contain only the number, in µM.

Briefly, IC50 measured for N.N.[Cl][Pt][Cl] [Cisplatin, reference compound] : 4

* * *

- Test system: MCF-7 breast
- EXPERIMENTAL_PROTOCOL: MTT growth inhibition assay, MCF-7
- Format: cell-based, human
- CONDITION_SUMMARY: 96 h
REPORTED_METRIC: pIC50
Bear in mind: pIC50 is minus log10 of a mol/L concentration; give just that figure.

For N.N.[Cl][Pt][Cl] [Cisplatin, reference compound] the molecule record lists pIC50 as 5.52
